# system-under-test: GDP-bound KRAS wild-type protein (Homo sapiens)
# Sequence (P01116 1-188 isoform P01116-2): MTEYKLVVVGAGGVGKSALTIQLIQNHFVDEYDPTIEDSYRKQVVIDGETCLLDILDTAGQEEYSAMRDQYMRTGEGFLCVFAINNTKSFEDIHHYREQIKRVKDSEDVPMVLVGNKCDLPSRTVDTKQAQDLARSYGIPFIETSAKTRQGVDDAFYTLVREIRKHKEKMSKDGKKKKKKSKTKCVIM
# assay-procedure: Binding to KRAS by surface plasmon resonance (SPR), dissociation constant KD
# condition-context: Single Cycle Kinetics
assay-readout: pKd
Reminder that pKd is minus the log10 of a molar concentration.

Example entries begin here.
C#CC[C@H]1C(=O)N[C@@H]([C@@H](C)CC)C(=O)N(C)CC(=O)N(C)[C@H]2C/C=C\CCN(C2=O)[C@@H](Cc2ccc(C(F)(F)F)cc2)C(=O)N(C)CC(=O)N[C@@H](CCc2ccc(C(F)(F)F)c(OC)c2)C(=O)N2C[C@H](OCC)C[C@H]2C(=O)N(C)C2(CCC2)C(=O)N(C)[C@@H](C2CCCC2)C(=O)N(C)[C@H](C(=O)N(C)C)CC(=O)N1C	10.52
CCO[C@@H]1C[C@H]2C(=O)OC3(CCC3)C(=O)N(C)[C@@H](C3CCCC3)C(=O)N(C)[C@H](C(=O)N(C)C)CC(=O)N(C)[C@@H]([C@H](C)OC)C(=O)N[C@@H]([C@@H](C)CC)C(=O)N(C3CC3)CC(=O)N(C)[C@H]3C/C=C\CCN(C3=O)[C@@H](Cc3ccc(C)cc3)C(=O)N(C)CC(=O)N[C@@H](CCc3ccc(C(F)(F)F)c(OC)c3)C(=O)N2C1	8.85

In: Read off the recorded pKd for CCCO[C@@H]1C[C@H]2C(=O)NC3(CC(C)(C)C3)C(=O)N(C)[C@@H](C3CCCC3)C(=O)N(C)[C@H](C(=O)N(C)CC)CC(=O)N(C)[C@@H](COCC)C(=O)N[C@@H]([C@@H](C)CC)C(=O)N3CCC[C@H]3C(=O)N(C)[C@H]3C/C=C\CCN(C3=O)[C@@H](Cc3ccc(C)cc3)C(=O)N(C)CC(=O)N[C@@H](CCc3ccc(C(F)(F)F)c(Cl)c3)C(=O)N2C1
Out: 9.01
